Reference for the values: patent US20230338349A1

protocol text: Single ascending dose study in healthy subjects, pharmacokinetics of compound of Formula I
Assay type: in vivo, human
condition context: human, plasma, mean, single oral dose 16 mg, 48 h
reported property: concentration at 48 h (ng/mL)
Record the value in ng/mL, omitting the unit from your answer.

Recorded concentration at 48 h of CC(=O)Nc1nc(F)c(CN2CC[C@H](OCc3noc(C)n3)C[C@@H]2C)s1 [compound of Formula I] , please.
0.828

* * *

protocol text: Single ascending dose study in healthy subjects, pharmacokinetics of compound of Formula I
Assay type: in vivo, human
condition context: human, plasma, single oral dose 10 mg, geometric mean, read-out: t1/2 (terminal half-life) (converted)
reported property: half-life (h)
Quick note: give the figure in h, leave out the unit.

Could you share which half-life value was measured for CC(=O)Nc1nc(F)c(CN2CC[C@H](OCc3noc(C)n3)C[C@@H]2C)s1 [compound of Formula I] ?
8.82

* * *

protocol text: Single ascending dose study in healthy subjects, pharmacokinetics of compound of Formula I
Format: in vivo, human
condition context: human, plasma, mean, single oral dose 0.6 mg, 0.5 h
reported property: concentration at 0.5 h (ng/mL)
Enter your answer as a number in ng/mL; do not include the unit.

# query: concentration at 0.5 h of entry `CC(=O)Nc1nc(F)c(CN2CC[C@H](OCc3noc(C)n3)C[C@@H]2C)s1`
6.15

* * *

protocol text: Single ascending dose study in healthy subjects, pharmacokinetics of compound of Formula I
Format: in vivo, human
condition context: human, plasma, single oral dose 16 mg, geometric mean (% CV), N = 3, read-out: CLr (renal clearance) (converted)
reported property: CL renal (mL/min)
The figure you give is taken to be in mL/min; do not add the unit.

CL renal lookup needed for `CC(=O)Nc1nc(F)c(CN2CC[C@H](OCc3noc(C)n3)C[C@@H]2C)s1` , thanks.
16

* * *

protocol text: Single ascending dose study in healthy subjects, pharmacokinetics of compound of Formula I
Assay type: in vivo, human
condition context: human, plasma, mean, single oral dose 10 mg, 8 h
reported property: concentration at 8 h (ng/mL)
Respond numerically; units are ng/mL and should not be typed.

Look up concentration at 8 h for this compound: CC(=O)Nc1nc(F)c(CN2CC[C@H](OCc3noc(C)n3)C[C@@H]2C)s1 [compound of Formula I]
55.1

* * *

protocol text: Single ascending dose study in healthy subjects, pharmacokinetics of compound of Formula I
Assay type: in vivo, human
condition context: human, plasma, mean, single oral dose 16 mg, 24 h
reported property: concentration at 24 h (ng/mL)
Please reply with the bare figure in ng/mL and do not write the unit itself.

Please give the measured concentration at 24 h for this molecule: `CC(=O)Nc1nc(F)c(CN2CC[C@H](OCc3noc(C)n3)C[C@@H]2C)s1`
6.83

* * *

protocol text: Single ascending dose study in healthy subjects, pharmacokinetics of compound of Formula I
Type: in vivo, human
condition context: human, plasma, mean, single oral dose 16 mg, 8 h
reported property: concentration at 8 h (ng/mL)
Unit ng/mL implied. Number only.

What value of concentration at 8 h has been reported for the following compound? CC(=O)Nc1nc(F)c(CN2CC[C@H](OCc3noc(C)n3)C[C@@H]2C)s1 [compound of Formula I]
63

* * *

protocol text: Single ascending dose study in healthy subjects, pharmacokinetics of compound of Formula I
Assay type: in vivo, human
condition context: human, plasma, mean, single oral dose 16 mg, 2 h
Protocol: A Phase 1, single-center, subject- and investigator-blind, single-ascending dose, placebo-controlled, crossover, randomized study is performed to evaluate safety, tolerability, and pharmacokinetics (PK) of the compound of Formula I in healthy subjects. The study is conducted in 2 alternating cohorts (cohorts 1 and 2) in up to 3 study periods across 6 dose levels. […]
reported property: concentration at 2 h (ng/mL)
Numbers only; they are read as ng/mL.

Consider the compound shown here: `CC(=O)Nc1nc(F)c(CN2CC[C@H](OCc3noc(C)n3)C[C@@H]2C)s1` What is its recorded concentration at 2 h?
187

* * *

protocol text: Single ascending dose study in healthy subjects, pharmacokinetics of compound of Formula I
Assay type: in vivo, human
condition context: human, plasma, single oral dose 0.6 mg, geometric mean, read-out: t1/2 (terminal half-life) (converted)
reported property: half-life
# include the unit after the value

Entry `CC(=O)Nc1nc(F)c(CN2CC[C@H](OCc3noc(C)n3)C[C@@H]2C)s1` : reported half-life = ?
6.08 h

* * *

protocol text: Plasma concentration of compound of Formula I in the PET occupancy study
Format: in vivo
condition context: human, single oral dose 0.25 mg, approx. 5 h, healthy subjects
reported property: concentration at 5 h (ng/mL)
// note: answer is a bare numeric in ng/mL

So what's the measured concentration at 5 h for this one? `CC(=O)Nc1nc(F)c(CN2CC[C@H](OCc3noc(C)n3)C[C@@H]2C)s1`
0.39

* * *

protocol text: Single ascending dose study in healthy subjects, pharmacokinetics of compound of Formula I
Type: in vivo, human
condition context: human, plasma, mean, single oral dose 5 mg, 12 h
Procedure: A Phase 1, single-center, subject- and investigator-blind, single-ascending dose, placebo-controlled, crossover, randomized study is performed to evaluate safety, tolerability, and pharmacokinetics (PK) of the compound of Formula I in healthy subjects. The study is conducted in 2 alternating cohorts (cohorts 1 and 2) in up to 3 study periods across 6 dose levels. […]
reported property: concentration at 12 h (ng/mL)
Supply the numeric figure in ng/mL, leaving out any unit text.

Would you kindly share the measured concentration at 12 h for CC(=O)Nc1nc(F)c(CN2CC[C@H](OCc3noc(C)n3)C[C@@H]2C)s1 [compound of Formula I] ?
9.74

* * *

protocol text: Single ascending dose study in healthy subjects, pharmacokinetics of compound of Formula I
Type: in vivo, human
condition context: human, plasma, mean, single oral dose 2 mg, 4 h
Description: A Phase 1, single-center, subject- and investigator-blind, single-ascending dose, placebo-controlled, crossover, randomized study is performed to evaluate safety, tolerability, and pharmacokinetics (PK) of the compound of Formula I in healthy subjects. The study is conducted in 2 alternating cohorts (cohorts 1 and 2) in up to 3 study periods across 6 dose levels. […]
reported property: concentration at 4 h
The reply should consist of the numeric value with the unit placed after it.

Could you share which concentration at 4 h value was measured for `CC(=O)Nc1nc(F)c(CN2CC[C@H](OCc3noc(C)n3)C[C@@H]2C)s1` ?
12.6 ng/mL

* * *

protocol text: Single ascending dose study in healthy subjects, pharmacokinetics of compound of Formula I
Type: in vivo, human
condition context: human, plasma, single oral dose 5 mg, geometric mean (% CV), read-out: CLr (renal clearance) (converted)
reported property: CL renal (mL/min)
Write the value in mL/min as a bare number.

Which CL renal value belongs to CC(=O)Nc1nc(F)c(CN2CC[C@H](OCc3noc(C)n3)C[C@@H]2C)s1 [compound of Formula I] ?
19.7

* * *

protocol text: Single ascending dose study in healthy subjects, pharmacokinetics of compound of Formula I
Format: in vivo, human
condition context: human, plasma, mean, single oral dose 16 mg, 6 h
Method: A Phase 1, single-center, subject- and investigator-blind, single-ascending dose, placebo-controlled, crossover, randomized study is performed to evaluate safety, tolerability, and pharmacokinetics (PK) of the compound of Formula I in healthy subjects. The study is conducted in 2 alternating cohorts (cohorts 1 and 2) in up to 3 study periods across 6 dose levels. […]
reported property: concentration at 6 h
The answer consists of two parts: a number and, after it, its unit.

Can you share its concentration at 6 h? I mean this compound: CC(=O)Nc1nc(F)c(CN2CC[C@H](OCc3noc(C)n3)C[C@@H]2C)s1 [compound of Formula I]
88 ng/mL

* * *

protocol text: Plasma concentration of compound of Formula I in the PET occupancy study
Assay type: in vivo
condition context: human, single oral dose 1 mg, approx. 3 h, healthy subjects
reported property: concentration at 3 h (ng/mL)
Use ng/mL as the unit, but write only the number.

# input compound: `CC(=O)Nc1nc(F)c(CN2CC[C@H](OCc3noc(C)n3)C[C@@H]2C)s1` ; wanted: its concentration at 3 h
4.97

* * *

protocol text: Single ascending dose study in healthy subjects, pharmacokinetics of compound of Formula I
Assay type: in vivo, human
condition context: human, plasma, single oral dose 2 mg, geometric mean, read-out: t1/2 (terminal half-life) (converted)
reported property: half-life (min)
Give just the number in min; leave the unit off.

Using the record for CC(=O)Nc1nc(F)c(CN2CC[C@H](OCc3noc(C)n3)C[C@@H]2C)s1 [compound of Formula I] , report its half-life.
329

* * *

protocol text: Single ascending dose study in healthy subjects, pharmacokinetics of compound of Formula I
Type: in vivo, human
condition context: human, plasma, oral, summary over the single ascending doses, read-out: t1/2 (converted)
reported property: half-life

Name the recorded half-life for CC(=O)Nc1nc(F)c(CN2CC[C@H](OCc3noc(C)n3)C[C@@H]2C)s1 [compound of Formula I] .
~6 h

* * *

protocol text: Plasma concentration of compound of Formula I in the PET occupancy study
Type: in vivo
condition context: human, single oral dose 0.25 mg, approx. 12 h, healthy subjects
reported property: concentration at 12 h (ng/mL)
Response body: numeric value in ng/mL, unit text excluded.

Quick one: concentration at 12 h for `CC(=O)Nc1nc(F)c(CN2CC[C@H](OCc3noc(C)n3)C[C@@H]2C)s1` ?
0.213
